Target: T1, Pin3, Q06449
T1 sequence (Q06449 53-122, looked up): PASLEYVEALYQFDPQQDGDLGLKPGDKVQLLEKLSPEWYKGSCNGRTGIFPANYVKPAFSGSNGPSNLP
Experiment: SPOT array
Conditions: median of control spots 2171
recordedEndpoint: SPOT intensity
Output spec: single numeric token, no unit.

Some solved entries appear below for comparison.
binder: IKTRSVPKIPSIESV
SPOT intensity: 15

binder: AAHKTKPSIPPKKVE
SPOT intensity: 0

binder: KMSRSPPRPPSLKII
SPOT intensity: 69

binder: LKRITSPPLPPRADS
SPOT intensity: 11

binder: PKMLPIPSKPTLFDL
SPOT intensity: 69

binder: PSPSSSPPPIPKTAN
SPOT intensity: 0

Kindly review the next binder as well.
Documented SPOT intensity of `PKRRAPPPVPKKPSS` : 11
